Measured values drawn from paper PMC5834492 for this set.

Tested on: M. marinum in BV2 microglial cells
Type: cell-based, Mycobacterium marinum
MEASURED ATTRIBUTE: IC50 (µM)
Lab book: enter the figure in µM, no units written.

Param request: IC50 | system M. marinum in BV2 microglial cells | item Nc1cc(OCc2ccccc2)ccc1Nc1ccccc1 [GV187303X]
5.44

====

Test system: D. discoideum GFP-ABD
Settings: 10 µM
MEASURED ATTRIBUTE: D. discoideum GFP-ABD normalised growth, control=1.00, mean
A bare number is all that is needed in reply.

COc1ccc(CCNC(=O)c2c(C)nc3ccccn23)cc1 [GSK762874A] : 1.04
O=C(O)C(F)(F)F.c1ccc(C[C@H]2CN(c3nccc(Oc4ccc(-n5ccnc5)cc4)n3)CCN2)cc1 [GSK1519001A] : 0.76
COc1ccc(Nc2ccccc2NC(=O)c2ccc(O)nc2)cc1 [GSK1051703A] : 1.00

Supply measured D. discoideum GFP-ABD normalised growth, control=1.00, mean of Cc1occc1C(=O)Nc1nc(-c2ccccn2)nc2ccsc12 [GSK237561A] in your reply.
-0.0741

# return recorded D. discoideum GFP-ABD normalised growth, control=1.00, mean for entry Cc1cccc(Cn2ccc(NC(=O)c3ccc4c(c3)OCO4)n2)c1 [GSK798463A]
0.66
